// data source = PubChem BioAssay (NCI)

# TGI per entry
Test system: HOP-18 NSCLC
Assay: NCI tumour cell line growth inhibition, 48 h
Give your result in µM as a bare value.

molecule: [O-]/[N+](=C\c1ccccc1)[C@H](COCc1ccccc1)c1ccccc1
TGI [µM]: 90.4

molecule: CCCCCCCCCCCOC(=S)NC(C)C
TGI [µM]: 88.5

molecule: CCC[CH2][Sn]([CH2]CCC)([O]C(=O)c1c(F)cccc1F)[O]C(=O)c1c(F)cccc1F
TGI [µM]: 3.3

molecule: N=C(c1ccccc1)N(c1ccccc1)c1ccccc1
TGI [µM]: 13.1

As a next step, examine the molecule that follows.
Lookup: Can you look up TGI on HOP-18 NSCLC for CC1=CC2CC(C)=C(CC[C@]3(C)CC[C@H]([C@@H](C)C(=O)O)OO3)C(C)(C)C2CC1 (some centres not stated) ?
Found: 1.45

----------
System: DU-145 prostate
Test: NCI tumour cell line growth inhibition, 48 h
# TGI annotations
Provide only the numeric value, understood in µM.

Lookup: Query: TGI; subject: CCCC(=O)O
Found: 13200

Lookup: Report TGI for COc1ccc(C#Cc2ccccc2C#CCCCCO)cc1 please.
Found: 52.6

----------
System: HCC-2998 colon
Assay: NCI tumour cell line growth inhibition, 48 h; in the data active means GI50 below about 0.43 µM; inactive means the rest
Pick one: yes (active), no (inactive)

Lookup: What was the test verdict on O=C(/C=C/c1ccc(B(O)O)cc1)/C=C/c1ccc(B(O)O)cc1 ?
Found: no

Lookup: Status in this test for CC(=O)C1=C(O)C=C2Oc3c(C(=O)/C=C/c4cc(C(F)(F)F)cc(C(F)(F)F)c4)c(O)c(C)c(O)c3[C@]2(C)C1=O ?
Found: no

Lookup: Recorded test call requested for C=CC(=O)Nc1ccc(Nc2nccc(-c3ccc(N4CCCC4)c(C#N)c3)n2)cc1
Found: no

Lookup: Outcome? O=P([O-])(O)OP(=O)([O-])O.[NH-][C@H]1CCCC[C@@H]1[NH-].[OH-].[OH-].[Pt+4]
Found: no

Lookup: Please share the test call associated with C(=Nc1ccccc1)C1CCCC[N-]1.C(=Nc1ccccc1)C1CCCC[N-]1.[Cu+2].[O-][Cl+3]([O-])([O-])O (stereo not given) .
Found: no

Lookup: Please let me know the test result on file for COc1ccc(-c2[nH]ncc2-c2cc3c(c(OC)c2)OCC(=O)N3)cc1 .
Found: no

Lookup: Tell me the assay call for COc1cc(-c2nn3c(/C=C4/C(=O)Nc5ccccc54)c(-c4ccc(C)cc4)nc3s2)cc(OC)c1OC please.
Found: no

Lookup: Please state the recorded outcome for this molecule: COc1cc2c(cc1OCCCN1CCN(CCCOc3cc4c(cc3OC)C(=O)N3CCC[C@H]3C=N4)CC1)C=CC(C)(C)O2
Found: no

Lookup: Record lookup: outcome of this test for FC(F)(F)c1ccc(-c2nc(-c3nc4cc(Cl)c(Cl)cc4[nH]3)c3ccccn23)cc1 ?
Found: no

Lookup: Any idea what this test logged for CCCN(CCC)CCCNCc1cc(I)cc(C)c1O ?
Found: no

Lookup: Each molecule tested received a call. Report the one for Cc1c2cc[nH]c(=O)c2c(C)c2c1[nH]c1cc(OCCN3CCN(C)CC3)ccc12 .
Found: no

Lookup: Look up the recorded call for COC(=O)[C@@H](NC(=O)NC(=O)NC(=O)CI)C(C)C in this test.
Found: no

Lookup: Please indicate how the test categorized COc1cc(/C(Cl)=C/C=C/C(=O)c2c(C)[n+]([O-])c3ccc(Cl)cc3[n+]2[O-])cc(OC)c1OC .
Found: no

Lookup: Please indicate how the test categorized COc1cccc([C@H]2CC(=O)c3cc4c(cc3N2)OCO4)c1 .
Found: yes

Lookup: I would be grateful if you could indicate the recorded call for CCCC(=O)O .
Found: no
